Molecular target: human KHK-C (Homo sapiens (Human), UniProt P50053)
Sequence (P50053 whole entry): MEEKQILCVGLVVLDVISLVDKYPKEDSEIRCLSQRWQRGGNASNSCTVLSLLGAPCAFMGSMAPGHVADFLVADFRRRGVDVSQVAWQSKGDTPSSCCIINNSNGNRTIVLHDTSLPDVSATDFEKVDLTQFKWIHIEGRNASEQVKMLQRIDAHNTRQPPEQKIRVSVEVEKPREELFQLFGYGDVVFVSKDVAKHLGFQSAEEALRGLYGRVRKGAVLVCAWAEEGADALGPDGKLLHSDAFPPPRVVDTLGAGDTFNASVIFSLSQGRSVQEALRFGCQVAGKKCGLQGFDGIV
Assay: KHK Biochemical Assay (IC50), ADP-Glo, KHK-C
Settings: average of at least two separate assays
pIC50: −log10 of the molar value.
Use YES when the recorded pIC50 is no lower than 8; use NO when it is lower.

[[record]]
molecule = "C[C@H]1CCCN1c1nc2c(c(-c3ccc(C(N)=O)cc3)n1)CCC2 [Example 403]"
tested_on = "human KHK-C (Homo sapiens (Human), UniProt P50053)"
class = "NO"

[[record]]
molecule = "C[C@@H]1N(c2nc(-c3ccc4c(c3)S(=O)(=O)C[C@H]4NS(C)(=O)=O)c3c(n2)C(F)(F)CC3)CC1(F)F (single isomer, unassigned) [Example 682]"
tested_on = "human KHK-C (Homo sapiens (Human), UniProt P50053)"
class = "YES"

[[record]]
molecule = "COC(=O)[C@@H]1C[C@@]12C(=O)Nc1ccc(-c3nc(N4CC[C@@H]4C)nc4c3CCC4)cc12 (racemic) [Example 406]"
tested_on = "human KHK-C (Homo sapiens (Human), UniProt P50053)"
class = "NO"

[[record]]
molecule = "C[C@H]1[C@H](O)CN1c1nc(-c2ccc3c(c2)OCC32NC(=O)N(CC(F)(F)F)C2=O)c2c(n1)C(F)(F)CC2 (stereo partly drawn) [Example 699]"
tested_on = "human KHK-C (Homo sapiens (Human), UniProt P50053)"
class = "YES"

[[record]]
molecule = "N#CCC1CCN1c1nc(-c2ccc3c(c2)S(=O)(=O)CCNC3)c2c(n1)C(F)(F)CC2 (stereo not drawn) [Example 791]"
tested_on = "human KHK-C (Homo sapiens (Human), UniProt P50053)"
class = "NO"

[[record]]
molecule = "CS(=O)(=O)c1cccc(-c2nc(N3CCC[C@H]3C#N)nc3c2CCC3)c1 [Example 712]"
tested_on = "human KHK-C (Homo sapiens (Human), UniProt P50053)"
class = "NO"

[[record]]
molecule = "N#C[C@H]1CCN1c1nc(-c2ccc(C(N)=O)cc2)c2c(n1)C(F)(F)CC2 [Example 707]"
tested_on = "human KHK-C (Homo sapiens (Human), UniProt P50053)"
class = "NO"

[[record]]
molecule = "C[C@H]1CCN1c1nc2c(c(-c3ccc(C4(NS(C)(=O)=O)CCC4)cc3)n1)CCC2 [Example 743]"
tested_on = "human KHK-C (Homo sapiens (Human), UniProt P50053)"
class = "NO"

[[record]]
molecule = "C[C@H]1[C@H](O)CN1c1nc(-c2ccc3c(c2)OC[C@@H]3NC2COC2)c2c(n1)C(F)(F)CC2 [Example 585]"
tested_on = "human KHK-C (Homo sapiens (Human), UniProt P50053)"
class = "NO"

[[record]]
molecule = "NC(=O)c1ccc(-c2nc(N3CCCC3=O)nc3c2CCC3)cc1 [Example 418]"
tested_on = "human KHK-C (Homo sapiens (Human), UniProt P50053)"
class = "NO"

[[record]]
molecule = "C[C@H]1CCN1c1nc(-c2ccc(C(N)=O)cc2)c2[nH]ncc2n1 [Example 396]"
tested_on = "human KHK-C (Homo sapiens (Human), UniProt P50053)"
class = "NO"


###

Biological target: human KHK-C (Homo sapiens (Human))
Test: KHK Biochemical Assay (IC50), ADP-Glo, KHK-C
Conditions: average of at least two separate assays
pIC50: −log10 of the molar value.
pIC50 for assorted compounds
Measurement label: pIC50

[[record]]
compound = "Cc1cc(-c2nc(N3C[C@@H](O)[C@@H]3C)nc3c2CCC3(F)F)ccc1C1(N)COC1 [Example 505]"
measurement_label = "pIC50"
measured_value = 8.62

[[record]]
compound = "NC1(c2ccc(-c3nc(N4CC[C@@H]4CF)nc4c3CCC4(F)F)cc2)COC1 [Example 471]"
measurement_label = "pIC50"
measured_value = 8.70

[[record]]
compound = "C[C@H]1[C@H](O)CN1c1nc(-c2ccc3c(c2)C(F)(F)C[C@@H]3NS(C)(=O)=O)c2c(n1)C(F)(F)CC2 (single isomer, unassigned) [Example 634]"
measurement_label = "pIC50"
measured_value = 9.05

[[record]]
compound = "C[C@H]1[C@H](O)CN1c1nc(-c2ccc(C3(N)CC(F)(F)C3)cc2)c2c(n1)C(F)(F)CC2 [Example 646]"
measurement_label = "pIC50"
measured_value = 8.57

[[record]]
compound = "C[C@H]1[C@H](O)CN1c1nc2c(c(-c3ccc4c(c3)S(=O)(=O)CNC4=O)n1)CCC2 [Example 601]"
measurement_label = "pIC50"
measured_value = 7.02

[[record]]
compound = "NC1(c2ccc(-c3nc(N4CC[C@@H]4C(F)(F)F)nc4c3CCC4(F)F)cc2)COC1 [Example 696]"
measurement_label = "pIC50"
measured_value = 9.30

[[record]]
compound = "C[C@H]1[C@H](O)CN1c1nc(-c2ccc([C@]3(N)CCOC3)cc2)c2c(n1)C(F)(F)CC2 (single isomer, unassigned) [Example 518]"
measurement_label = "pIC50"
measured_value = 8.96

[[record]]
compound = "C[C@H]1CCN1c1nc2c(c(-c3cccc(C4CS(=O)(=O)C4)c3)n1)CCC2 [Example 421]"
measurement_label = "pIC50"
measured_value = 7.17

[[record]]
compound = "C[C@H]1[C@H](O)CN1c1nc(-c2ccc3c(c2)OCC32COC(=O)N2)c2c(n1)C(F)(F)CC2 (some centres unmarked) [Example 481]"
measurement_label = "pIC50"
measured_value = 9.52

[[record]]
compound = "COc1cc(-c2nc(N3C[C@@H](O)[C@@H]3C)nc3c2CCC3(F)F)cc2c1C(NS(C)(=O)=O)CO2 (some centres unmarked) [Example 477]"
measurement_label = "pIC50"
measured_value = 9.40

[[record]]
compound = "C[C@H]1[C@H](O)CN1c1nc(-c2ccc3c(c2)S(=O)(=O)C[C@@H]3N)c2c(n1)C(F)(F)CC2 (single isomer, unassigned) [Example 662]"
measurement_label = "pIC50"
measured_value = 8.51

[[record]]
compound = "C[C@H]1[C@H](O)CN1c1nc(-c2ccc3c(c2)CC[C@]32NC(=O)N(CCO)C2=O)c2c(n1)C(F)(F)CC2 [Example 686]"
measurement_label = "pIC50"
measured_value = 10.00

[[record]]
compound = "C[C@H]1[C@H](O)CN1c1nc(-c2ccc3c(c2)OC[C@@H]3NS(C)(=O)=O)c2c(n1)C(F)(F)CC2 [Example 466]"
measurement_label = "pIC50"
measured_value = 9.30

[[record]]
compound = "C[C@H]1[C@H](F)CN1c1nc(-c2ccc3c(c2)S(=O)(=O)C[C@H]3NS(C)(=O)=O)c2c(n1)C(F)(F)CC2 (single isomer, unassigned) [Example 680]"
measurement_label = "pIC50"
measured_value = 8.85

